- method.notes: Thermo Scientific Acclaim RSLC 120 C18, 100 × 2.1 mm, 2.2 µm, 30 °C; A: 90% water + 10% methanol + 0.01% formic acid + 5 mM ammonium formate; B: methanol + 0.01% formic acid + 5 mM ammonium formate; gradient (min/%B) 0.1/1 3/39 14/99.9 16/99.9
- measurement.conditions: stereoisomer not certain
endpoint.label: LC retention time (min)
Give your result in min as a bare value.

Tell me its LC retention time given CC(C)C1CCC(C(=O)NC(Cc2ccccc2)C(=O)O)CC1 (configuration not stated) as the entry.
10.4

Look up LC retention time of CCCC(C(=O)c1ccc2ccccc2c1)N1CCCC1 (configuration not stated) and report it.
7.33

Give reported LC retention time value for `CCn1cc(C(=O)O)c(=O)c2ccc(C)nc21`
7.06

Consider the molecule `CCOC(=O)NC(=S)Nc1ccccc1NC(=S)NC(=O)OCC` . State its measured LC retention time.
8.61

Note down LC retention time recorded for `Cc1cc(C)nc(Nc2ccccc2)n1`
9.44

Name the recorded LC retention time of the molecule listed here: `O=C(c1cccc2ccccc12)c1cn(CCN2CCOCC2)c2cccc(O)c12`
10.1

Using the record for CNCC(c1ccc(OC)cc1)C1(O)CCCCC1 (configuration not stated) , state its measured LC retention time.
6.18

Input `O=C(c1cccc2ccccc12)c1cn(CC2CCCCC2)c2ccccc12` , output reported LC retention time.
13

Give the value of LC retention time reported for the following: CCCc1nn(C)c2c(=O)[nH]c(-c3cc(C(=O)CN4CC(C)NC(C)C4)ccc3OCC)nc12 (configuration not stated)
7.5

Indicate its recorded LC retention time; the molecule in question is CC(C)(C)NCC(O)COc1ccccc1C#N (configuration not stated)
4.66

Identify measured LC retention time associated with CC1COCc2cc3c(cc21)C(C)(C)C(C)C3(C)C (configuration not stated)
13.9

For the molecule `Cc1ccc(N=CN(C)C=Nc2ccc(C)cc2C)c(C)c1` , give its measured LC retention time value.
13.3
